Quick list: inhibition at 60 µM per entry.
molecular target: Sam68ΔC and Fyn-SH3 binding (Homo sapiens, UniProt Q07666); construct: (Sam68ΔC) [Sam68(331-443): made by Santa Cruz Co.]; purchased Santa Cruz Sam68(331-443); Fyn(85-139) AC; assay: SH3 domain binding inhibition test 1: Sam68ΔC bound to Fyn-SH3 beads, Western blot; inhibition ratio from band intensity (Test Examples 1 and 4); parameters: species or system recombinant human Sam68ΔC; mouse recombinant Fyn SH3 domain; settings: Concentration of the compound 60 μmol/L, read-out: The inhibition ratio (%) of the compound against SH3 domain binding
Sequence (Q07666 331-443, stated change not applied): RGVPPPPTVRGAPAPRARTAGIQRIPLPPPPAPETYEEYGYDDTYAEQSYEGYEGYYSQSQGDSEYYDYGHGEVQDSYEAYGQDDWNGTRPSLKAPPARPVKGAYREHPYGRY

| compound | assayed_system | unit_descriptor | inhibition at 60 µM |
| --- | --- | --- | --- |
| CC1=CC2/C=C(\C)CCC(O)C(O)/C=C/C(=O)C23C(=O)NC(CC(C)C)C3C1C (stereo not drawn) | Sam68ΔC and Fyn-SH3 binding (Homo sapiens, UniProt Q07666) | % | 92 |
| CC1=CC(/C=C(\C)CCC=O)C2(C(=O)/C=C/C=O)C(=O)NC(CC(C)C)C2C1C (stereo not drawn) | Sam68ΔC and Fyn-SH3 binding (Homo sapiens, UniProt Q07666) | % | 91 |
| C=C1C(C)C2C(Cc3ccc(OC)cc3)NC(=O)C23OC(=O)O/C=C/C(C)(O)C(=O)C(C)C/C=C/C3C1O (stereo not drawn) | Sam68ΔC and Fyn-SH3 binding (Homo sapiens, UniProt Q07666) | % | 16 |
| C/C1=C\CC(=O)OC23C(=O)NC(Cc4ccc(O)cc4)C2C(C)C2(C)OC2C3/C=C/CC(C)C1=O (stereo not drawn) | Sam68ΔC and Fyn-SH3 binding (Homo sapiens, UniProt Q07666) | % | 67 |
| CC1=CC2/C=C(\C)CCC(O)C(O)/C=C/C(=O)OC23C(=O)NC(CC(C)C)C3C1C (stereo not drawn) | Sam68ΔC and Fyn-SH3 binding (Homo sapiens, UniProt Q07666) | % | 92 |
| CC1=CC2/C=C(\C)CCC(O)C(O)C(O)CC(=O)C23C(=O)NC(CC(C)C)C3C1C (stereo not drawn) | Sam68ΔC and Fyn-SH3 binding (Homo sapiens, UniProt Q07666) | % | 31 |
| CC1=CC2/C=C(\C)CCCC(O)/C=C/C(=O)OC23C(=O)NC(CC(C)C)C3C1C (stereo not drawn) | Sam68ΔC and Fyn-SH3 binding (Homo sapiens, UniProt Q07666) | % | 64 |
| CC1=CC2/C=C(\C)CCC(=O)C(=O)CCC(=O)C23C(=O)NC(CC(C)C)C3C1C (stereo not drawn) | Sam68ΔC and Fyn-SH3 binding (Homo sapiens, UniProt Q07666) | % | 62 |
| CC1=CC2/C=C(\C)CCC(O)C(=O)/C=C/C(=O)C23C(=O)NC(CC(C)C)C3C1C (stereo not drawn) | Sam68ΔC and Fyn-SH3 binding (Homo sapiens, UniProt Q07666) | % | 87 |

====

biological target: Sam68ΔC and Fyn-SH3 binding (Homo sapiens, UniProt Q07666); construct: (Sam68ΔC) [Sam68(331-443): made by Santa Cruz Co.]; purchased Santa Cruz Sam68(331-443); Fyn(85-139) AC; assay: SH3 domain binding inhibition test 1: Sam68ΔC bound to Fyn-SH3 beads, Western blot; inhibition ratio from band intensity (Test Examples 1 and 4); parameters: species or system recombinant human Sam68ΔC; mouse recombinant Fyn SH3 domain; details: Concentration of the compound 150 μmol/L, read-out: The inhibition ratio (%) of the compound against SH3 domain binding
Quick list: inhibition at 150 µM per entry.

| compound | inhibition at 150 µM (%) |
| --- | --- |
| CC1=CC2/C=C(\C)CCC(O)C(O)/C=C/C(=O)C23C(=O)NC(CC(C)C)C3C1C (centres unmarked) [Compound 26, Aspochalasin C] | 100 |
| C/C1=C\CC(=O)OC23C(=O)NC(Cc4ccc(O)cc4)C2C(C)C2(C)OC2C3/C=C/CC(C)C1=O (centres unmarked) [Compound 16] | 78 |
| CC1=CC2/C=C(\C)CCC(=O)C(=O)CCC(=O)C23C(=O)NC(CC(C)C)C3C1C (centres unmarked) [Compound 24, Aspochalasin A] | 80 |
| CC1=CC2/C=C(\C)CCC(O)C(O)C(O)CC(=O)C23C(=O)NC(CC(C)C)C3C1C (centres unmarked) [Compound 28, Aspochalasin E] | 73 |
| CC1=CC2/C=C(\C)CCC(O)C(O)/C=C/C(=O)OC23C(=O)NC(CC(C)C)C3C1C (centres unmarked) [Compound 20] | 100 |
| CC1=CC2/C=C(\C)CCCC(O)/C=C/C(=O)OC23C(=O)NC(CC(C)C)C3C1C (centres unmarked) [Compound 21] | 100 |
| CC1=CC2/C=C(\C)CCC(O)C(=O)/C=C/C(=O)C23C(=O)NC(CC(C)C)C3C1C (centres unmarked) [Compound 25, Aspochalasin B] | 100 |
| C=C1C(C)C2C(Cc3ccc(OC)cc3)NC(=O)C23OC(=O)O/C=C/C(C)(O)C(=O)C(C)C/C=C/C3C1O (centres unmarked) [Compound 18] | 67 |
| COc1ccc(CC2NC(=O)C34OC(=O)O/C=C/C(C)(O)C(=O)C(C)C/C=C/C3C(O)C(C)=C(C)C24)cc1 (centres unmarked) [Compound 19] | 40 |
| COc1ccc(CC2NC(=O)C34OC(=O)OCCC(C)(O)C(=O)C(C)C/C=C/C3C3OC3(C)C(C)C24)cc1 (centres unmarked) [Compound 17] | 36 |
| CC1=CC(/C=C(\C)CCC=O)C2(C(=O)/C=C/C=O)C(=O)NC(CC(C)C)C2C1C (centres unmarked) [Compound 22] | 100 |
